Target: LK35.2-hPD-L1 cells / PE-labeled PD-1-Ig (Homo sapiens, UniProt Q9NZQ7)
Construct: expressed in transfected cells; host or cells: LK35.2 mouse B cell line
Sequence (Q9NZQ7 19-290): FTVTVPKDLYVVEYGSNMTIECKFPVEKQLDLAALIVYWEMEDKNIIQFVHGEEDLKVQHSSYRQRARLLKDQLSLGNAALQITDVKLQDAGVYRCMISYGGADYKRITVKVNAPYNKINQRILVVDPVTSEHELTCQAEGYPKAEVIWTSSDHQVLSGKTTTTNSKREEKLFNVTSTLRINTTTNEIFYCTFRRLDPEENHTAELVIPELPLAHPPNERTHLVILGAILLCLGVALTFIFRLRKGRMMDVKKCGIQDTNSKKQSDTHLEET
Assay: LK35.2-hPD-L1 cell binding high-content screening assay
Type: cell-based
Conditions: cell binding assay, cell line not given; cluster symbol; read-out: CBA IC50 cluster
Positions of bridges follow the written chain, without caps; N, C: chain ends. Non-standard residues stand in square brackets, D forms with d. Residues, ends and D or L forms follow the SMILES beside them. ξ: configuration not given here. Bta = N[C@@H](Cc1csc2ccccc12)C(=O)O; Hyp = O=C(O)[C@@H]1C[C@@H](O)CN1; NMeNle = CCCC[C@H](NC)C(=O)O; NMeA = CN[C@@H](C)C(=O)O; Dab = NCC[C@H](N)C(=O)O; Dap = NC[C@H](N)C(=O)O; ξC = NC(CS)C(=O)O; Sar = CNCC(=O)O
Below, each entry is listed alongside its reported IC50.

{"columns": ["compound", "IC50"],
 "data": [
  ["CCCC[C@H]1C(=O)N(C)[C@@H](CCCC)C(=O)N[C@@H](CC(C)C)C(=O)N[C@H](C(=O)NCC(N)=O)CSCC(=O)N[C@@H](Cc2ccc(O)cc2)C(=O)N(C)[C@@H](C)C(=O)N[C@@H](CC(N)=O)C(=O)N2CCC[C@H]2C(=O)N[C@@H](Cc2c[nH]cn2)C(=O)N[C@@H](CCC(N)=O)C(=O)N2C[C@H](O)C[C@H]2C(=O)N[C@@H](Cc2c[nH]c3ccccc23)C(=O)NCC(=O)N[C@@H](Cc2c[nH]c3ccccc23)C(=O)N1C [Example 5109] ({CH2CO}-Y[NMeA]NPHQ[Hyp]WGW[NMeNle][NMeNle]LCG-NH2; thioether N-14)", "0.158 to 4.71 nM"],
  ["CCCC[C@H]1C(=O)N(C)[C@@H](CCCC)C(=O)N[C@@H](CC(C)C)C(=O)N[C@H](C(=O)NCC(N)=O)CSCC(=O)N[C@@H](Cc2ccc(O)cc2)C(=O)N(C)[C@@H](C)C(=O)N[C@@H](CC(N)=O)C(=O)N2CCC[C@H]2C(=O)N[C@@H](CO)C(=O)N[C@@H](CCC(N)=O)C(=O)N2C[C@H](O)C[C@H]2C(=O)N[C@@H](Cc2c[nH]c3ccccc23)C(=O)N[C@@H](CO)C(=O)N[C@@H](Cc2c[nH]c3ccccc23)C(=O)N1C [Example 5115] ({CH2CO}-Y[NMeA]NPSQ[Hyp]WSW[NMeNle][NMeNle]LCG-NH2; thioether N-14)", "0.158 to 4.71 nM"],
  ["CCCC[C@H]1C(=O)N2CCC[C@@H]2C(=O)N[C@@H](CCCNC(=N)N)C(=O)N[C@H](C(=O)NCC(N)=O)CSCC(=O)N[C@@H](Cc2ccc(O)cc2)C(=O)N(C)[C@@H](C)C(=O)N[C@@H](CC(N)=O)C(=O)N2CCC[C@H]2C(=O)N[C@@H](Cc2cnc[nH]2)C(=O)N[C@@H](CC(C)C)C(=O)N2CCC[C@H]2C(=O)N[C@@H](Cc2c[nH]c3ccccc23)C(=O)N[C@@H](CO)C(=O)N[C@@H](Cc2csc3ccccc23)C(=O)N1C [Example 5004] ({CH2CO}-Y[NMeA]NPHLPWS[Bta][NMeNle][dP]RCG-NH2; thioether N-14)", "4.78 to 72.9 nM"],
  ["CCCC[C@H]1C(=O)N(C)[C@@H](CCCC)C(=O)N[C@@H](CC(C)C)C(=O)N[C@H](C(=O)NCC(N)=O)CSCC(=O)N[C@@H](Cc2ccc(O)cc2)C(=O)N(C)[C@@H](C)C(=O)N[C@@H](CC(N)=O)C(=O)N2CCC[C@H]2C(=O)NCC(=O)N[C@@H](CCC(N)=O)C(=O)N2C[C@H](O)C[C@H]2C(=O)N[C@@H](Cc2c[nH]c3ccccc23)C(=O)N[C@@H](CO)C(=O)N[C@@H](Cc2c[nH]c3ccccc23)C(=O)N1C [Example 5127] ({CH2CO}-Y[NMeA]NPGQ[Hyp]WSW[NMeNle][NMeNle]LCG-NH2; thioether N-14)", "4.78 to 72.9 nM"],
  ["CCCC[C@H]1C(=O)N(C)[C@@H](CCCC)C(=O)N[C@@H](CCCNC(=N)N)C(=O)N[C@H](C(=O)NCC(N)=O)CSCC(=O)N[C@@H](Cc2ccc(O)cc2)C(=O)N(C)[C@@H](C)C(=O)N[C@@H](CCN)C(=O)N2CCC[C@H]2C(=O)N[C@@H](CN)C(=O)N[C@@H](CCC(=O)O)C(=O)N2C[C@H](O)C[C@H]2C(=O)N[C@@H](Cc2c[nH]c3ccccc23)C(=O)N[C@@H](CO)C(=O)N[C@@H](Cc2c[nH]c3ccccc23)C(=O)N1C [Example 5131] ({CH2CO}-Y[NMeA][Dab]P[Dap]E[Hyp]WSW[NMeNle][NMeNle]RCG-NH2; thioether N-14)", "0.158 to 4.71 nM"],
  ["CCCC[C@H]1C(=O)N(C)[C@@H](CCCC)C(=O)N[C@@H](CCCNC(=N)N)C(=O)NC(C(=O)NCC(N)=O)CSCC(=O)N[C@@H](Cc2ccc(O)cc2)C(=O)N(C)[C@@H](C)C(=O)N[C@@H](CC(N)=O)C(=O)N2CCC[C@H]2C(=O)N[C@@H](CO)C(=O)N[C@@H](CC(C)C)C(=O)N2C[C@H](O)C[C@H]2C(=O)N[C@@H](Cc2c[nH]c3ccccc23)C(=O)N[C@@H](CO)C(=O)N[C@@H](Cc2c[nH]c3ccccc23)C(=O)N1C (some centres unmarked) [Example 9074] ({CH2CO}-Y[NMeA]NPSL[Hyp]WSW[NMeNle][NMeNle]R[ξC]G-NH2; thioether N-14)", "0.158 to 4.71 nM"],
  ["CCCC[C@H]1C(=O)N(C)[C@@H](CCCC)C(=O)NCC(=O)N[C@H](C(=O)NCC(N)=O)CSCC(=O)N[C@@H](Cc2ccc(O)cc2)C(=O)N(C)[C@@H](C)C(=O)N[C@@H](CC(N)=O)C(=O)N2CCC[C@H]2C(=O)N[C@@H](Cc2c[nH]cn2)C(=O)N[C@@H](CCC(N)=O)C(=O)N2C[C@H](O)C[C@H]2C(=O)N[C@@H](Cc2c[nH]c3ccccc23)C(=O)N[C@@H](CO)C(=O)N[C@@H](Cc2c[nH]c3ccccc23)C(=O)N1C [Example 5125] ({CH2CO}-Y[NMeA]NPHQ[Hyp]WSW[NMeNle][NMeNle]GCG-NH2; thioether N-14)", "4.78 to 72.9 nM"],
  ["CCCC[C@H]1C(=O)N(C)[C@@H](CCCC)C(=O)N[C@@H](CCCNC(=N)N)C(=O)N[C@H](C(=O)NCC(N)=O)CSCC(=O)N[C@@H](Cc2ccccc2)C(=O)N(C)[C@@H](C)C(=O)N[C@@H](CO)C(=O)N2CCC[C@H]2C(=O)N[C@@H](Cc2cnc[nH]2)C(=O)N[C@@H](CC(C)C)C(=O)N(C)CC(=O)N[C@@H](Cc2c[nH]c3ccccc23)C(=O)N[C@@H](CO)C(=O)N[C@@H](Cc2c[nH]c3ccccc23)C(=O)N1C [Example 5019] ({CH2CO}-F[NMeA]SPHL[Sar]WSW[NMeNle][NMeNle]RCG-NH2; thioether N-14)", "4.78 to 72.9 nM"]
]}

---

Biological target: LK35.2-hPD-L1 cells / PE-labeled PD-1-Ig (Homo sapiens, UniProt Q9NZQ7)
Construct: expressed in transfected cells; host or cells: LK35.2 mouse B cell line
Experiment: LK35.2-hPD-L1 cell binding high-content screening assay
Type: cell-based
Details: cluster symbol; cell line of CBA not given (LK35.2-hPD-L1 or 293T-hPD-L1); read-out: CBA IC50 cluster
Positions of bridges follow the written chain, without caps; N, C: chain ends. Non-standard residues stand in square brackets, D forms with d. Residues, ends and D or L forms follow the SMILES beside them. Phe(3-Me) = Cc1cccc(C[C@H](N)C(=O)O)c1; NMeF = CN[C@@H](Cc1ccccc1)C(=O)O; NMeNle = CCCC[C@H](NC)C(=O)O; NMeA = CN[C@@H](C)C(=O)O; Dap = NC[C@H](N)C(=O)O; Sar = CNCC(=O)O
quantity.name: IC50

{"columns": ["molecule", "target.or.test.system", "reported.result"],
 "data": [
  ["CCCC[C@H]1C(=O)N2CCC[C@@H]2C(=O)N[C@@H](CCC(=O)O)C(=O)N[C@@H](C(C)C)C(=O)N(C)[C@@H](Cc2ccccc2)C(=O)N[C@@H](CN)C(=O)N2CCC[C@@H]2C(=O)N[C@@H](Cc2c[nH]c3ccccc23)C(=O)N[C@@H](Cc2ccc(O)cc2)C(=O)N[C@@H](CC(C)C)C(=O)N[C@H](C(=O)NCC(N)=O)CSCC(=O)N[C@@H](Cc2ccccc2)C(=O)N(C)[C@@H](Cc2ccccc2)C(=O)N1C [Example 3191] ({CH2CO}-F[NMeF][NMeNle][dP]EV[NMeF][Dap][dP]WYLCG-NH2; thioether N-13)", "LK35.2-hPD-L1 cells / PE-labeled PD-1-Ig (Homo sapiens, UniProt Q9NZQ7)", "4.78 to 72.9 nM"],
  ["CCCC[C@H]1C(=O)N(C)[C@@H](CCCC)C(=O)N[C@@H](CCCNC(=N)N)C(=O)N[C@H](C(=O)NCC(N)=O)CSCC(=O)N[C@@H](Cc2cccc(C)c2)C(=O)N(C)[C@@H](C)C(=O)N[C@@H](CC(N)=O)C(=O)N2CCC[C@H]2C(=O)N[C@@H](Cc2cnc[nH]2)C(=O)N[C@@H](CC(C)C)C(=O)N(C)CC(=O)N[C@@H](Cc2c[nH]c3ccccc23)C(=O)N[C@@H](CO)C(=O)N[C@@H](Cc2c[nH]c3ccccc23)C(=O)N1C [Example 1097] ({CH2CO}-[Phe(3-Me)][NMeA]NPHL[Sar]WSW[NMeNle][NMeNle]RCG-NH2; thioether N-14)", "LK35.2-hPD-L1 cells / PE-labeled PD-1-Ig (Homo sapiens, UniProt Q9NZQ7)", "4.78 to 72.9 nM"]
]}
